# reported log10 MIC99; entries follow
- Test system: Salmonella typhi
- run.description: Antibacterial activity against Salmonella enterica subsp. enterica serovar Typhi MTCC 98 after overnight incubation by broth microdilution method
- Type: functional
Values are log10 of MIC99 in µg/mL.

- smiles.text: "COc1ccc2nc(Oc3ccc(F)cc3)c(-c3c(C#N)c(N)n4c(nc5ccccc54)c3C#N)cc2c1"
  log10 MIC99: 2.70
- smiles.text: "Cc1ccc2nc(Oc3ccc(F)cc3)c(-c3c(C#N)c(N)n4c(nc5ccccc54)c3C#N)cc2c1"
  log10 MIC99: 2.40
- smiles.text: "COc1ccc(Oc2nc3ccccc3cc2-c2c(C#N)c(N)n3c(nc4ccccc43)c2C#N)cc1"
  log10 MIC99: 2.30
- smiles.text: "Cc1ccc2nc(Oc3ccccc3)c(-c3c(C#N)c(N)n4c(nc5ccccc54)c3C#N)cc2c1"
  log10 MIC99: 2.00
- smiles.text: "COc1ccc(Oc2nc3ccc(C)cc3cc2-c2c(C#N)c(N)n3c(nc4ccccc43)c2C#N)cc1"
  log10 MIC99: 2.30

Data request: Give the value of log10 MIC99 reported for the following: COc1ccc(Oc2nc3ccccc3cc2-c2c(C#N)c(N)n3c(nc4cc(C)ccc43)c2C#N)cc1
Data returned: 2.10
